Tested on: T1, GST-tagged GluK2 ATD (rat)
T1 chain: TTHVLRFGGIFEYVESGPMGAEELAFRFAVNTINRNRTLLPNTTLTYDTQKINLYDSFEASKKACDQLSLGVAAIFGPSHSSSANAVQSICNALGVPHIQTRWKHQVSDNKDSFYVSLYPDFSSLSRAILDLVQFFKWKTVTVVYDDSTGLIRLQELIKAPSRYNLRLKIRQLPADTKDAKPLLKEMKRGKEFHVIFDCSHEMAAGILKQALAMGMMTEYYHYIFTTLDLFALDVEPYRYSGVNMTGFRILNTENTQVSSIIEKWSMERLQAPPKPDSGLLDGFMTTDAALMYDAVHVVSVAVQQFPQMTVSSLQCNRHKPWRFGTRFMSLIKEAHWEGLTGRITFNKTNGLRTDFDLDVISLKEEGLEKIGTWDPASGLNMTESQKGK
Experiment notes: FP
Where no end group is shown, it is not given here. The star is where a group is joined. FITC = O=C1OC2(c3ccc(O)cc3Oc3cc(O)ccc32)c2ccc(NC(=S)*)cc21
Readout name: pKd
Quick note: pKd means taking -log10 of the concentration in moles per liter.

**Q:** Bench note: what pKd did {FITC}-MERSTVLIQPGLWTRDTSWTLLYFLCYILP [FITC-labelled GluK1 signal peptide] show?
**A:** 4.45
